# Tested on: Mycolicibacterium smegmatis
# TEST PROTOCOL: Antimicrobial activity against Mycobacterium smegmatis by agar dilution method
# Type: functional
Lab note: anything with MIC below 7 µM is marked true (1); values at 7 µM or higher are marked false (0).

                                   compound                       system        cat
0  CC1CN(c2nc3c(cc2[N+](=O)[O-])c(=O)c(C(=O)O)cn3C(C)(C)C)CC(C)O1 (stereo not drawn)  Mycolicibacterium smegmatis  false (0)
1  O=C(O)c1cn(C2CC2)c2nc(N3CCN(C(=O)C4COc5ccccc5O4)CC3)c([N+](=O)[O-])cc2c1=O (stereo not drawn)  Mycolicibacterium smegmatis   true (1)
2  CC(C)(C)n1cc(C(=O)O)c(=O)c2cc([N+](=O)[O-])c(N3CCN(C(c4ccccc4)c4ccc(Cl)cc4)CC3)nc21 (stereo not drawn)  Mycolicibacterium smegmatis  false (0)
3  O=C(O)c1cn(-c2ccc(F)cc2)c2nc(N3CCSCC3)c([N+](=O)[O-])cc2c1=O  Mycolicibacterium smegmatis   true (1)
4  O=C(O)c1cn(-c2ccc(F)cc2)c2nc(N3CCC(O)(c4ccc(Cl)cc4)CC3)c([N+](=O)[O-])cc2c1=O  Mycolicibacterium smegmatis  false (0)

Incoming: Find out if reported MIC for COc1ccc(CC2C3=C(CCCC3)CCN2c2nc3c(cc2[N+](=O)[O-])c(=O)c(C(=O)O)cn3C2CC2)cc1 (stereo not drawn) is less than 7 µM
Outgoing: true (1)
